# System: Human rhinovirus sp.
# Experiment Description: Percent inhibitory activity at 8 uM against rhinoviral 3 serotype in a plaque inhibition assay using monolayers of M-HeLa cells
# Assay type: functional
Listing of entries alongside the reported Inhibition.
Give a bare numeral; the unit % is implied.

# Smiles Repr, Inhibition [%]
measured = [
    ("Cc1ccc(Cn2cnc3c(N(C)C)nc(C(F)(F)F)nc32)c(C)c1", 40),
]

Query (molecule): CN(C)c1nc(C(F)(F)F)nc2c1ncn2Cc1ccccc1 ; field requested: Inhibition
20

Same for Cc1cc(Cl)ccc1Cn1cnc2c(N(C)C)nc(C(F)(F)F)nc21
29

###

# Test system: Human rhinovirus sp.
# Experiment Description: Antiviral activity against rhinoviral 21 serotype in a plaque inhibition assay using monolayers of M-HeLa cells
# Type: functional, organism-based
Examples of compounds with documented pIC50 follow.
Lab note: report pIC50 as minus log10 of the concentration in molar units, number only.

# Smiles Repr, System, pIC50
rows = [
    ("CN(C)c1nc(C(F)(F)F)nc2c1ncn2Cc1cccc(F)c1", "Human rhinovirus sp.", 5.00),
    ("Cc1cc(Cn2cnc3c(N(C)C)nc(C(F)(F)F)nc32)ccc1Cl", "Human rhinovirus sp.", 5.20),
    ("CN(C)c1nc(C(F)(F)F)nc2c1ncn2Cc1ccc(S(C)(=O)=O)cc1", "Human rhinovirus sp.", 5.05),
    ("CN(C)c1nc(C(F)(F)F)nc2c1ncn2Cc1ccc(Cl)cc1", "Human rhinovirus sp.", 5.13),
    ("CN(C)c1nc(C(F)(F)F)nc2c1ncn2Cc1ccc(Br)cc1", "Human rhinovirus sp.", 5.30),
]

Moving on to the next compound.
Tell me the measured pIC50 of CN(C)c1nc(C(F)(F)F)nc2c1ncn2Cc1ccc(C(F)(F)F)cc1 , please.
5.09

###

# Experiment Description: Antiviral activity against rhinoviral 9 serotype in a plaque inhibition assay using monolayers of M-HeLa cells
# Format: functional, cell-based
# Condition Info: Homo sapiens
Outcome Measure: pIC50
Kindly note that pIC50 refers to -log10 of the concentration in mol/L and answer with the value alone.

Name the reported pIC50 value associated with the molecule CN(C)c1nc(C(F)(F)F)nc2c1ncn2Cc1ccc(S(C)(=O)=O)cc1
5.43

###

# System: Human rhinovirus sp.
# Experiment Description: Percent inhibitory activity at 8 uM against rhinoviral 31 serotype in a plaque inhibition assay using monolayers of M-HeLa cells
# Format: functional
Outcome Measure: Inhibition (%)
Field format: number, assumed %, no unit text.

# Smiles Repr, Inhibition, %
data = [
    ("CN(C)c1ccc(Cn2cnc3c(N(C)C)nc(C(F)(F)F)nc32)cc1", 41),
    ("CN(C)c1nc(C(F)(F)F)nc2c1ncn2Cc1ccccc1", 37),
    ("CN(C)c1nc(C(F)(F)F)nc2c1ncn2Cc1ccccc1Cl", 38),
]

Report Inhibition for CN(C)c1nc(C(F)(F)F)nc2c1ncn2Cc1ccc(Cl)c(N)c1 tested on Human rhinovirus sp..
29

Please do the same for CN(C)c1nc(C(F)(F)F)nc2c1ncn2Cc1ccc([N+](=O)[O-])cc1 as well.
37

Now consider CN(C)c1nc(C(F)(F)F)nc2c1ncn2Cc1cccc(F)c1 and answer again.
43

Try CN(C)c1nc(C(F)(F)F)nc2c1ncn2Cc1ccc(Cl)cc1Cl next.
28

Subsequent entry: Cc1ccccc1Cn1cnc2c(N(C)C)nc(C(F)(F)F)nc21
47

Check CN(C)c1nc(C(F)(F)F)nc2c1ncn2Cc1ccc(F)cc1 too.
47
